molecular target: IKZF3 (Aiolos) (Homo sapiens, UniProt Q96SW2+Q9UKT9); construct: endogenous in cells; experiment: HiBiT degradation assay, DF15/HiBiT-IKZF3 KI cells; conditions: degradation, 4 hr incubation, top conc 10 uM, N ≥ 3
Sequence (Q9UKT9 whole entry): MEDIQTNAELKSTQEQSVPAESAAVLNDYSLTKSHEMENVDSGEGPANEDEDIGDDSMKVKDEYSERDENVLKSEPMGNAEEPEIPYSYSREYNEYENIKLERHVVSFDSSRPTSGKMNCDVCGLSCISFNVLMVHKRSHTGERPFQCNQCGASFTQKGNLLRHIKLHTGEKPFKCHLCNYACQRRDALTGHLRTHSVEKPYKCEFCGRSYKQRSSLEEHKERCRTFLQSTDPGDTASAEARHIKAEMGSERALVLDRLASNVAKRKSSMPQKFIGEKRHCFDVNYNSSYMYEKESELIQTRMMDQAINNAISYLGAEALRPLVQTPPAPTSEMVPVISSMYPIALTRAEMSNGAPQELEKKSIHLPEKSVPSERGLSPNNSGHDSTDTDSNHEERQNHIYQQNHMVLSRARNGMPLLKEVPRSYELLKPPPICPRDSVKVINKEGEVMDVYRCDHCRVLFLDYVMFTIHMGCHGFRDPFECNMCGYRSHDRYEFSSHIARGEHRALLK
Sequence (Q96SW2 whole entry): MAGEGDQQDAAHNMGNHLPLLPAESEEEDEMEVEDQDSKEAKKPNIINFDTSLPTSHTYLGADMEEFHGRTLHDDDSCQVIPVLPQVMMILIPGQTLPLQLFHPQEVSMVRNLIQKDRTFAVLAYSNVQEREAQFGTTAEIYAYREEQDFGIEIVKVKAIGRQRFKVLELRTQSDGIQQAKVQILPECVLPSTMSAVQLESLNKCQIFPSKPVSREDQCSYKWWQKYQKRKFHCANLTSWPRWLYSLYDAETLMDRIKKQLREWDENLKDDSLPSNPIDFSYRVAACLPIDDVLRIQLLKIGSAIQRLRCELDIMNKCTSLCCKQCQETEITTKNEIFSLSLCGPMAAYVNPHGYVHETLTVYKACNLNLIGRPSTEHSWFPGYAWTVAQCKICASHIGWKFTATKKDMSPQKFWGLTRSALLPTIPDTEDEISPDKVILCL
Sequence (Q16531 whole entry partner): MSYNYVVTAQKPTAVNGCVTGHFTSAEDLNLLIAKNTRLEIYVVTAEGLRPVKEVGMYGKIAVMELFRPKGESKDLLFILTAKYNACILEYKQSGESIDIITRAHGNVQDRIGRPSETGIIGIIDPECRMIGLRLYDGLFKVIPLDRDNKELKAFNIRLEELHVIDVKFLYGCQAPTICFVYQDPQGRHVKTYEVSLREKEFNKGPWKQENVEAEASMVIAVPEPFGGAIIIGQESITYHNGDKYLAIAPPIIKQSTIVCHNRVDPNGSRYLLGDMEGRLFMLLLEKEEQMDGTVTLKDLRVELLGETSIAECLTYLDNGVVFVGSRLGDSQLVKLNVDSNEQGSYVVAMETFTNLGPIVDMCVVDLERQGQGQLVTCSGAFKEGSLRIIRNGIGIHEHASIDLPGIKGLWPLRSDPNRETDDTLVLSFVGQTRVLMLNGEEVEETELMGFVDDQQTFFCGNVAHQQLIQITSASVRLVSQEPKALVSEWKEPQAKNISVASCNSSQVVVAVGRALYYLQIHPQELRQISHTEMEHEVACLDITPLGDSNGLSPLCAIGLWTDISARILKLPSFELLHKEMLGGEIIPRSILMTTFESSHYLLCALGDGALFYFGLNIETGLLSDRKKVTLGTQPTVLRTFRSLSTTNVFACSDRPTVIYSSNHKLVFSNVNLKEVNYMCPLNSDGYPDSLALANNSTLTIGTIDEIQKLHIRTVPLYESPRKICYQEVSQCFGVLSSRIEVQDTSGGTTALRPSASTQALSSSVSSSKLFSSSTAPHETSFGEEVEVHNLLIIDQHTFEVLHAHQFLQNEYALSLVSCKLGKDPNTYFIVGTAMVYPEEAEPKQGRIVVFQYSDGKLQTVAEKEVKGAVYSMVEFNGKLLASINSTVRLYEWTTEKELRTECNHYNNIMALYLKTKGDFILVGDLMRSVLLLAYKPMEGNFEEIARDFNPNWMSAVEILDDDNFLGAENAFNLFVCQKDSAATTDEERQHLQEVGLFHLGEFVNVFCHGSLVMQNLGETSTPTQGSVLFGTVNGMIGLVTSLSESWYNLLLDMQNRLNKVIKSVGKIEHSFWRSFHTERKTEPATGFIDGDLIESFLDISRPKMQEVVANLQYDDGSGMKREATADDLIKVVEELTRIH
PARAMETER: EC50

> print(dat)
                                    molecule  parameter       val
 1  O=C1CCC(N2Cc3cccc(C4=C[C@]4(C(=O)OCC(Cl)(Cl)Cl)c4ccc(Br)cc4)c3C2=O)C(=O)N1 (stereo partly shown) [Compound 24a]       EC50   > 10 µM
 2  O=C1CCC(N2Cc3cc(C4=C[C@@]4(C(=O)OCC(Cl)(Cl)Cl)c4ccc(Br)cc4)ccc3C2=O)C(=O)N1 (stereo partly shown) [Compound 21b]       EC50    4.8 µM
 3  O=C1CCC(N2Cc3cccc([C@@H]4C[C@]4(C(=O)OCC(Cl)(Cl)Cl)c4ccc(Br)cc4)c3C2=O)C(=O)N1 (stereo partly shown) [Compound 18a]       EC50   > 10 µM
 4  O=C1CCC(N2Cc3c(cccc3C3=C[C@@]3(C(=O)OCC(Cl)(Cl)Cl)c3ccc(Br)cc3)C2=O)C(=O)N1 (stereo partly shown) [Compound 19b]       EC50   0.11 µM
 5  O=C1CCC(N2Cc3ccc(C4=C[C@@]4(C(=O)OCC(Cl)(Cl)Cl)c4ccc(Br)cc4)cc3C2=O)C(=O)N1 (stereo partly shown) [Compound 23b]       EC50   > 10 µM
 6  O=C1CCC(N2C(=O)c3ccc(C4=C[C@]4(C(=O)OCC(Cl)(Cl)Cl)c4ccc(Br)cc4)cc3C2=O)C(=O)N1 (stereo partly shown) [Compound 22a]       EC50    1.3 µM
 7  O=C1CCC(N2C(=O)c3cccc([C@H]4C[C@@]4(C(=O)OCC(Cl)(Cl)Cl)c4ccc(Br)cc4)c3C2=O)C(=O)N1 (stereo partly shown) [Compound 14b]       EC50   > 10 µM
 8  O=C1CCC(N2Cc3c(cccc3[C@H]3C[C@@]3(C(=O)OCC(Cl)(Cl)Cl)c3ccc(Br)cc3)C2=O)C(=O)N1 (stereo partly shown) [Compound 13b]       EC50   > 10 µM
 9  O=C1CCC(N2Cc3c(cccc3C3=C[C@]3(C(=O)OCC(Cl)(Cl)Cl)c3ccc(Br)cc3)C2=O)C(=O)N1 (stereo partly shown) [Compound 19a]       EC50  0.012 µM
10  O=C1CCC(N2Cc3ccc([C@@H]4C[C@]4(C(=O)OCC(Cl)(Cl)Cl)c4ccc(Br)cc4)cc3C2=O)C(=O)N1 (stereo partly shown) [Compound 17a]       EC50   > 10 µM
11  O=C1CCC(N2Cc3cccc([C@H]4C[C@@]4(C(=O)OCC(Cl)(Cl)Cl)c4ccc(Br)cc4)c3C2=O)C(=O)N1 (stereo partly shown) [Compound 18b]       EC50   > 10 µM
12  O=C1CCC(N2Cc3cc(C4=C[C@]4(C(=O)OCC(Cl)(Cl)Cl)c4ccc(Br)cc4)ccc3C2=O)C(=O)N1 (stereo partly shown) [Compound 21a]       EC50   > 10 µM
13  O=C1CCC(N2Cc3ccc([C@H]4C[C@@]4(C(=O)OCC(Cl)(Cl)Cl)c4ccc(Br)cc4)cc3C2=O)C(=O)N1 (stereo partly shown) [Compound 17b]       EC50   > 10 µM
